Answer each item with its documented pKd.
# measured on: human DLL3 (Homo sapiens, UniProt Q9NYJ7)
# Sequence (Q9NYJ7 27-618): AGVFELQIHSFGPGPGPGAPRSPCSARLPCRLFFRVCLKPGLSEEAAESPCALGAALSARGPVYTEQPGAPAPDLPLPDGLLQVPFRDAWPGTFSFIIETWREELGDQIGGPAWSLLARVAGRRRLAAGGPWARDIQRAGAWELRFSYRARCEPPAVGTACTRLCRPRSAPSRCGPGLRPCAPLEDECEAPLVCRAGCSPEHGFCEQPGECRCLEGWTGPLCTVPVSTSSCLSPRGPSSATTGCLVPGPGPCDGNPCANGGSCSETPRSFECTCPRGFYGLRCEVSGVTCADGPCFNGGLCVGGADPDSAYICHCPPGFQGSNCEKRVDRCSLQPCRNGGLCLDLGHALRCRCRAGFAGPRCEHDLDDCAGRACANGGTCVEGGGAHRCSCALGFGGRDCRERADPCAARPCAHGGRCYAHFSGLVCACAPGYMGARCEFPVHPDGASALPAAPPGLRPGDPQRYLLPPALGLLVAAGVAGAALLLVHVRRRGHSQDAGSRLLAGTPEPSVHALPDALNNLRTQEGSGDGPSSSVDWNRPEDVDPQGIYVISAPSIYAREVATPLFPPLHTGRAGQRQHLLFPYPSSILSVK
# assay info: Affinity determination by Surface Plasmon Resonance (SPR)
# Format: binding
# settings: 25° C., biotinylated human DLL3 immobilized on streptavidin sensor chip, 1:1 binding model; read-out: SPR KD
pKd: −log10 of the molar value. Bridge positions count the residues as written; N and C are the ends. Square brackets hold non-standard residues; d marks the D form. Peptide text beside a SMILES is read from it. * marks the point of attachment. DOTA = O=C(O)CN1CCN(CC(=O)O)CCN(CC(=O)*)CCN(CC(=O)O)CC1

Input line: Name the reported pKd value associated with the compound CC[C@H](C)[C@H](NC(=O)[C@@H](NC(=O)[C@H](Cc1c[nH]c2ccccc12)NC(C)=O)[C@@H](C)O)C(=O)N[C@H]1CSSC[C@@H](C(=O)N[C@@H](Cc2c[nH]c3ccccc23)C(=O)N2CCC[C@H]2C(=O)N[C@H](CCCCNC(=O)CN2CCN(CC(=O)O)CCN(CC(=O)O)CCN(CC(=O)O)CC2)C(N)=O)NC(=O)[C@H](CC(=O)O)NC(=O)[C@H](CCC(=O)O)NC(=O)[C@H](Cc2c[nH]c3ccccc23)NC(=O)[C@H](CCC(=O)O)NC(=O)[C@H](CC(N)=O)NC1=O [compound 276] (Ac-WTICNEWEDCWP[dK](DOTA)-NH2; disulfide 4-10)
Output line: 7.00 to 8.00

Input line: Name the reported pKd value associated with the compound CC[C@H](C)[C@H](NC(=O)[C@@H](NC(=O)[C@H](Cc1c[nH]c2ccccc12)NC(C)=O)[C@@H](C)O)C(=O)N[C@H]1CSSC[C@@H](C(=O)N[C@@H](Cc2c[nH]c3ccccc23)C(=O)N2CCC[C@H]2C(=O)N[C@H](CCCCNC(=O)CN2CCN(CC(=O)O)CCN(CC(=O)O)CCN(CC(=O)O)CC2)C(N)=O)NC(=O)[C@H](CC(=O)O)NC(=O)[C@H](CCC(=O)O)NC(=O)[C@H](Cc2c[nH]c3ccccc23)NC(=O)[C@H](CC(N)=O)NC(=O)[C@H](CC(N)=O)NC1=O [compound 274] (Ac-WTICNNWEDCWP[dK](DOTA)-NH2; disulfide 4-10)
Output line: 8.00 to 9.00

Input line: Name the reported pKd value associated with the compound CC[C@H](C)[C@H](NC(=O)[C@@H](NC(=O)[C@H](Cc1c[nH]c2ccccc12)NC(C)=O)[C@@H](C)O)C(=O)N[C@H]1CSSC[C@@H](C(=O)N[C@@H](Cc2c[nH]c3ccccc23)C(=O)N2CCC[C@H]2C(=O)N[C@H](CCCCNC(=O)CN2CCN(CC(=O)O)CCN(CC(=O)O)CCN(CC(=O)O)CC2)C(N)=O)NC(=O)[C@H](CC(=O)O)NC(=O)[C@H](CCC(=O)O)NC(=O)[C@H](Cc2c[nH]c3ccccc23)NC(=O)[C@H](CC(N)=O)NC(=O)[C@H](CCC(=O)O)NC1=O [compound 273] (Ac-WTICENWEDCWP[dK](DOTA)-NH2; disulfide 4-10)
Output line: 8.00 to 9.00

Where do these numbers come from? They come from patent US20250011368A1.
